test: Cytotoxicity test (MTT, three days); format: cell-based; settings: mouse, l1210 cells, final concentration 1 μM, read-out: Survival rate
# viability at 72 h, 1 µM per record follows
Unit % implied. Number only.

CC(C)(C)C(=O)Oc1ccc(-c2nnn(C(C(=O)O)c3ccccc3)n2)cc1 (stereo not drawn); 96.7
CC(C)c1ccc(-n2nnc(-c3ccc(OC(=O)C(C)(C)C)cc3)n2)cc1; 94.9
CC(C)(C)C(=O)Oc1ccc(-c2nnn(Cc3ccccc3N)n2)cc1; 103
CC(C)(C)C(=O)Oc1ccc(-c2nnn(Cc3ccc(C(=O)O)cc3)n2)cc1; 101
Cc1cc(-c2nnn(Cc3ccc(N(C)C)cc3)n2)ccc1OC(=O)C(C)(C)C; 103

Param item = "CC(C)Cn1nnc(-c2ccc(OC(=O)C(C)(C)C)cc2)n1" ; retrieve measured viability at 72 h, 1 µM.
92.5
